# Test system: DU-145
# Run Description: SRB colorimetric assay of cell growth and viability, DU-145
# Assay type: cell-based, human
# Protocol Conditions: 48 hours exposure, SRB
# Procedure: The finality of this assay is to interrupt the growth of a “in vitro” tumor cell culture by means a continued exhibition of the cells to the sample to be testing. […] Cells are seeded in 96 well microtiter plates, at 5×10^3 cells per well in aliquots of 195 μL medium, and they are allowed to attach to the plate surface by growing in drug free medium for 18 hours. […] Optical densities are read on a automated spectrophotometric plate reader at a single wavelength of 490 nm. […]
Test Readout: GI50 (nM)
Response body: numeric value in nM, unit text excluded.

Query: Report GI50 for C/C=C1\NC(=O)[C@H](Cc2ccccc2)NC(=O)[C@@H](C(C)C)NC(=O)[C@@H]([C@@H](C)CC)NC(=O)[C@H](NC(=O)[C@H](NC(=O)[C@H](CCCN)NC(=O)[C@H]2CCCCN2C(=O)[C@H](NC(=O)[C@@H](NC(=O)[C@@H](NC(=O)[C@H](NC(=O)CC[C@@H](C)CC)C(C)C)[C@@H](C)O)C(C)C)C(C)C)[C@@H](C)CC)[C@@H](C)OC(=O)[C@H](C(C)C)NC1=O [Compound 60, [D-Pip^9, (4S)-MeHex^14]-KF] please.
Response: 1640

----------
# Test system: LoVo-Dox
# Run Description: SRB colorimetric assay of cell growth and viability, LoVo-Dox
# Assay type: cell-based, human
# Protocol Conditions: LOVO-DOX; 48 hours exposure
Where a SMILES comes first, the peptide text is derived from it. Bridges are numbered along the chain shown (N, C = ends). [ ]: non-standard residue; d: D form. The star is where a group is joined. d(aIle) = CC[C@H](C)[C@@H](N)C(=O)O; d(aThr) = C[C@@H](O)[C@@H](N)C(=O)O; Hexanoyl(5-Me) = CC(C)CCCC(=O)*; Orn = NCCC[C@H](N)C(=O)O; Dhb = C/C=C(\N)C(=O)O
Test Readout: GI50 (nM)
Write the answer as a number in nM, unit excluded.

Query: Find the recorded GI50 belonging to C/C=C1\NC(=O)[C@H](Cc2ccccc2)NC(=O)[C@@H](C(C)C)NC(=O)[C@@H]([C@@H](C)CC)NC(=O)[C@H](NC(=O)[C@H](NC(=O)[C@H](CCCN)NC(=O)[C@H]2CCCN2C(=O)[C@H](NC(=O)[C@@H](NC(=O)[C@@H]2CCCN2C(=O)[C@H](NC(=O)CCCC(C)C)C(C)C)C(C)C)C(C)C)[C@@H](C)CC)[C@@H](C)OC(=O)[C@H](C(C)C)NC1=O [Compound 117, [Pro^12]-KF] ({Hexanoyl(5-Me)}-[dV]PV[dV][dP][Orn][d(aIle)][d(aThr)][d(aIle)][dV]F[Dhb]V; ester 8-C) and report it.
Response: 1830

Query: // GI50 lookup, key: C/C=C1\NC(=O)[C@H](Cc2ccccc2)NC(=O)[C@@H](C(C)C)NC(=O)[C@@H]([C@@H](C)CC)NC(=O)[C@H](NC(=O)[C@H](NC(=O)[C@H](CCCN)NC(=O)[C@H]2CCCN2C(=O)[C@H](NC(=O)[C@@H](NC(=O)[C@H](CCC(N)=O)NC(=O)[C@H](NC(=O)CCCC(C)C)C(C)C)C(C)C)C(C)C)[C@@H](C)CC)[C@@H](C)OC(=O)[C@H](C(C)C)NC1=O [Compound 119, [Gln^12]-KF] ({Hexanoyl(5-Me)}-[dV]QV[dV][dP][Orn][d(aIle)][d(aThr)][d(aIle)][dV]F[Dhb]V; ester 8-C)
Response: 591

----------
Could you please report measured LC50 for the items listed next?
# System: SK-BR-3
# Run Description: SRB colorimetric assay of cell growth and viability, SK-BR-3
# Type: cell-based, human
# Protocol Conditions: 48 hours exposure
# Protocol: The finality of this assay is to interrupt the growth of a “in vitro” tumor cell culture by means a continued exhibition of the cells to the sample to be testing. […] Cells are seeded in 96 well microtiter plates, at 5×10^3 cells per well in aliquots of 195 μL medium, and they are allowed to attach to the plate surface by growing in drug free medium for 18 hours. […] Optical densities are read on a automated spectrophotometric plate reader at a single wavelength of 490 nm. […]
Where a SMILES comes first, the peptide text is derived from it. Bridges are numbered along the chain shown (N, C = ends). [ ]: non-standard residue; d: D form. The star is where a group is joined. d(aIle) = CC[C@H](C)[C@@H](N)C(=O)O; d(aThr) = C[C@@H](O)[C@@H](N)C(=O)O; Hexanoyl(5-Me) = CC(C)CCCC(=O)*; Orn = NCCC[C@H](N)C(=O)O; Dhb = C/C=C(\N)C(=O)O
Entry rule: numbers only, all in µM.

Query: Any idea what its LC50 is? The compound is C/C=C1\NC(=O)[C@H](Cc2ccccc2)NC(=O)[C@@H](C(C)C)NC(=O)[C@@H]([C@@H](C)CC)NC(=O)[C@H](NC(=O)[C@H](NC(=O)[C@H](CCCN)NC(=O)[C@H]2CCCN2C(=O)[C@H](NC(=O)[C@H](CCC(=O)O)NC(=O)[C@@H](NC(=O)[C@H](NC(=O)CCCC(C)C)C(C)C)[C@@H](C)O)C(C)C)[C@@H](C)CC)[C@@H](C)OC(=O)[C@H](C(C)C)NC1=O [Compound 51, [Glu^11]-KF] ({Hexanoyl(5-Me)}-[dV]TE[dV][dP][Orn][d(aIle)][d(aThr)][d(aIle)][dV]F[Dhb]V; ester 8-C)
Response: 6.63

Query: So what's the measured LC50 for this one? C/C=C1\NC(=O)[C@H](Cc2ccccc2)NC(=O)[C@@H](C(C)C)NC(=O)[C@@H]([C@@H](C)CC)NC(=O)[C@H](NC(=O)[C@H](NC(=O)[C@H](CCCN)NC(=O)[C@H]2CCCN2C(=O)[C@H](NC(=O)[C@@H]2CCCN2C(=O)[C@@H](NC(=O)[C@H](NC(=O)CCCC(C)C)C(C)C)[C@@H](C)O)C(C)C)[C@@H](C)CC)[C@@H](C)OC(=O)[C@H](C(C)C)NC1=O [Compound 47, [Pro^11]-KF] ({Hexanoyl(5-Me)}-[dV]TP[dV][dP][Orn][d(aIle)][d(aThr)][d(aIle)][dV]F[Dhb]V; ester 8-C)
Response: 6.78

----------
# System: LoVo
# Run Description: SRB colorimetric assay of cell growth and viability, LoVo
# Assay type: cell-based, human
# Protocol Conditions: 48 hours exposure
Where a SMILES comes first, the peptide text is derived from it. Bridges are numbered along the chain shown (N, C = ends). [ ]: non-standard residue; d: D form. The star is where a group is joined. d(aIle) = CC[C@H](C)[C@@H](N)C(=O)O; d(aThr) = C[C@@H](O)[C@@H](N)C(=O)O; Hexanoyl(5-Me) = CC(C)CCCC(=O)*; Orn = NCCC[C@H](N)C(=O)O; Dhb = C/C=C(\N)C(=O)O
Test Readout: GI50 (nM)
Number in nM, nothing else.

Query: Reported GI50, compound C/C=C1\NC(=O)[C@H](Cc2ccccc2)NC(=O)[C@@H](C(C)C)NC(=O)[C@@H]([C@@H](C)CC)NC(=O)[C@H](NC(=O)[C@H](NC(=O)[C@H](CCCN)NC(=O)[C@H]2CCCN2C(=O)[C@H](NC(=O)[C@@H](NC(=O)[C@@H](NC(=O)[C@H](NC(=O)CCCC(C)C)C(C)C)C(C)C)C(C)C)C(C)C)[C@@H](C)CC)[C@@H](C)OC(=O)[C@H](C(C)C)NC1=O [Compound 6, [Val^12]-KF] ({Hexanoyl(5-Me)}-[dV]VV[dV][dP][Orn][d(aIle)][d(aThr)][d(aIle)][dV]F[Dhb]V; ester 8-C) : ____
Response: 133

----------
# System: IGROV-1
# Run Description: SRB colorimetric assay of cell growth and viability, IGROV-1
# Assay type: cell-based, human
# Protocol Conditions: IGROV; 48 hours exposure
# Description: The finality of this assay is to interrupt the growth of a “in vitro” tumor cell culture by means a continued exhibition of the cells to the sample to be testing. […] Cells are seeded in 96 well microtiter plates, at 5×10^3 cells per well in aliquots of 195 μL medium, and they are allowed to attach to the plate surface by growing in drug free medium for 18 hours. […] Optical densities are read on a automated spectrophotometric plate reader at a single wavelength of 490 nm. […]
Test Readout: LC50 (concentration causing 50% net cell killing) (nM)
The reply should be a number in nM, with the unit left off.

Query: Lab request: please report LC50 (concentration causing 50% net cell killing) under test system IGROV-1 for [2H]C([2H])([2H])C([2H])(C([2H])([2H])[2H])[C@]([2H])(NC(=O)[C@@H](NC(=O)[C@H](NC(=O)CCCC(C)C)C(C)C)[C@@H](C)O)C(=O)N[C@@H](C(=O)N1CCC[C@@H]1C(=O)N[C@@H](CCCN)C(=O)N[C@@H](C(=O)N[C@H]1C(=O)N[C@H]([C@@H](C)CC)C(=O)N[C@H](C(C)C)C(=O)N[C@@H](Cc2ccccc2)C(=O)N/C(=C\C)C(=O)N[C@@H](C(C)C)C(=O)O[C@@H]1C)[C@@H](C)CC)C(C)C [Compound 100, [L-Val-d8^11]-KF]
Response: 1730

All figures here come from patent US20070117743A1.
